Data credit: ChEMBL document CHEMBL1926547

molecular target: Polyunsaturated fatty acid 5-lipoxygenase (Homo sapiens); experiment: Inhibition of 5-LOX assessed as decrease in oxygen concentration using arachidonic acid as substrate by polarigraphic method with Clark's oxygen electrode
measurement-label: IC50 (µM)

compound | test-target | measurement-label | inequality-symbol | test-value
COc1ccc(C(O)C#CCOCc2ccc(SC)cc2)cc1 (stereo unspecified) | Polyunsaturated fatty acid 5-lipoxygenase (Homo sapiens) | IC50 | > | 100
COc1cc(C(O)C#CCOCc2ccc(SC)cc2)cc(OC)c1OC (stereo unspecified) | Polyunsaturated fatty acid 5-lipoxygenase (Homo sapiens) | IC50 | = | 80
COc1cccc(C(O)C#CCOCc2ccc(SC)cc2)c1OC (stereo unspecified) | Polyunsaturated fatty acid 5-lipoxygenase (Homo sapiens) | IC50 | = | 69
CCCCCC(O)C#CCOCc1ccc(SC)cc1 (stereo unspecified) | Polyunsaturated fatty acid 5-lipoxygenase (Homo sapiens) | IC50 | > | 100
OC(C#CCOCc1ccccc1)c1ccccc1 (stereo unspecified) | Polyunsaturated fatty acid 5-lipoxygenase (Homo sapiens) | IC50 | > | 100
CSc1ccc(COCC#CC(O)c2ccc(F)cc2)cc1 (stereo unspecified) | Polyunsaturated fatty acid 5-lipoxygenase (Homo sapiens) | IC50 | = | 12

###

# Lookup of reported IC50 keyed by entry
target: Polyunsaturated fatty acid 5-lipoxygenase (Homo sapiens, UniProt P09917); assay: Inhibition of 5-LOX assessed as decrease in oxygen concentration using arachidonic acid as substrate by polarigraphic method with Clark's oxygen electrode
Sequence (P09917 whole entry): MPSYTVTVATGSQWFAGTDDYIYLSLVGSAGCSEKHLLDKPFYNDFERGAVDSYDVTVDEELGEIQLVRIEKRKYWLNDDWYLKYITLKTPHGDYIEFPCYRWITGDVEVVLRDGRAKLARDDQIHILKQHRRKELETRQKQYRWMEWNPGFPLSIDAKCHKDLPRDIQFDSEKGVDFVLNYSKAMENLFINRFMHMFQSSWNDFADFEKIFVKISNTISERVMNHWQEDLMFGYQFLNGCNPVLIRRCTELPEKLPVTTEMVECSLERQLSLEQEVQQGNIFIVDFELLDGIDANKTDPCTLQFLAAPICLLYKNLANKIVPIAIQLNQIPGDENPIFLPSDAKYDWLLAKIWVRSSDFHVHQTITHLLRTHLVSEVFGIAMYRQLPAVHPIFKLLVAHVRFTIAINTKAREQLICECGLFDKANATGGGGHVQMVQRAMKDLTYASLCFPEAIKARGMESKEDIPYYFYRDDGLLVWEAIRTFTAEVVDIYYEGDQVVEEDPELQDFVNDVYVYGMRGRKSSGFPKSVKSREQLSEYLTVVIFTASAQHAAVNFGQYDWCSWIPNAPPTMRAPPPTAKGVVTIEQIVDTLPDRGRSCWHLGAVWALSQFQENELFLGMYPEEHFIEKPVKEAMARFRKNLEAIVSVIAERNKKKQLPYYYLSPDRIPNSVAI

compound | test-target | IC50, µM
CSc1ccc(COCC#CC(O)c2ccc(C(C)C)cc2)cc1 (stereo unspecified) | Polyunsaturated fatty acid 5-lipoxygenase (Homo sapiens, UniProt P09917) | 8
CSc1ccc(COCC#CC(O)c2ccc(C#N)cc2)cc1 (stereo unspecified) | Polyunsaturated fatty acid 5-lipoxygenase (Homo sapiens, UniProt P09917) | 41
COc1ccc(C(O)C#CCOCc2ccc(SC)cc2)cc1OC (stereo unspecified) | Polyunsaturated fatty acid 5-lipoxygenase (Homo sapiens, UniProt P09917) | 80
CC1=C(C)C(=O)C(CCCCC#CCCCC#CCO)=C(C)C1=O | Polyunsaturated fatty acid 5-lipoxygenase (Homo sapiens, UniProt P09917) | 1.7
CSc1ccc(COCC#CC(O)c2cccc([N+](=O)[O-])c2)cc1 (stereo unspecified) | Polyunsaturated fatty acid 5-lipoxygenase (Homo sapiens, UniProt P09917) | 62
COc1ccc(C(O)C#CCOCc2ccc(SC)cc2)c(OC)c1OC (stereo unspecified) | Polyunsaturated fatty acid 5-lipoxygenase (Homo sapiens, UniProt P09917) | 72
